molecular target: NMDA receptor; assay: [3H]CPP binding assay (displacement of tritiated CPP in rat frontal cortex homogenates); settings: compounds of the invention; [3H]CPP 8 nM, 23° C., 15 min, pH 7.6; read-out: IC50
Structures can show the parent of a compound that is named as a salt.
measurement kind: IC50 (nM)
Enter your answer as a number in nM; do not include the unit.

compound="Cl.Cl.N[C@H](Cc1nc2cc(Cl)c(Cl)cc2n1CP(=O)(O)O)C(=O)O [Example 2, dihydrochloride]" measurement_kind=IC50 result_number=18.2

Prompt: Hello, I am looking for reported IC50 with NMDA receptor for Cc1cc2nc(C[C@@H](N)C(=O)O)n(CP(=O)(O)O)c2cc1C.Cl.Cl [Example 3, dihydrochloride] . Could you help?
Completion: 123

Prompt: Hello, I am looking for reported IC50 with NMDA receptor for N[C@@H](Cc1nc2cc(Cl)c(Cl)cc2n1CP(=O)(O)O)C(=O)O [Example 9, dihydrate] . Could you help?
Completion: 1010

Prompt: Hello, I am looking for reported IC50 with NMDA receptor for Cl.N[C@H](Cc1nc2cc(Cl)ccc2n1CP(=O)(O)O)C(=O)O [Example 8, hydrochloride] . Could you help?
Completion: 7

Prompt: Hello, I am looking for reported IC50 with NMDA receptor for Cl.Cl.N[C@H](Cc1nc2ccccc2n1CP(=O)(O)O)C(=O)O.O.O [Example 1, dihydrochloride, dihydrate] . Could you help?
Completion: 59

Prompt: Hello, I am looking for reported IC50 with NMDA receptor for N[C@H](Cc1nc2ccc(Cl)cc2n1CP(=O)(O)O)C(=O)O [Example 7, hydrochloride, hydrate] . Could you help?
Completion: 21.7
